Reported viability, T/C values are given for each entry in this list.
- Test system: 276233-004-R-J1-PDC complex spheroid viability;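 note: spheroids exposed to drugs for seven days; 100% = DMSO vehicle control viability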
- test_description: Anticancer human tumor 276233-004-R-J1-PDC patient-derived colon adenocarcinoma cell line growth inhibition [GQUAD]
- condition_context: second compound 10 µM; first compound 0.1 µM; hits give low values
Reply with just the number (in %).

COc1cccc2c1C(=O)c1c(O)c3c(c(O)c1C2=O)CC(O)(C(=O)CO)CC3OC1CC(N)C(O)C(C)O1 (stereo not given) + Cc1cnc(CNC(=O)c2c(=O)c3ccc(N4CCCN(C)CC4)nc3n3c2sc2ccccc23)cn1
60.6
O=C(NO)c1cnc(N2CCN(S(=O)(=O)c3ccc4ccccc4c3)CC2)nc1 + CN(C)c1ccc(Nc2c3ccc(NC(=O)CCN4CCCC4)cc3nc3cc(NC(=O)CCN4CCCC4)ccc23)cc1
45.6
COc1cc(C2c3cc4c(cc3C(OC3OC5COC(C)OC5C(O)C3O)C3COC(=O)C23)OCO4)cc(OC)c1O (stereo not given) + CN(C)c1ccc(Nc2c3ccc(NC(=O)CCN4CCCC4)cc3nc3cc(NC(=O)CCN4CCCC4)ccc23)cc1
59.5
CC(C)n1c(=O)n(C)c2cnc3cc(F)c(-c4ccc(OCCCN5CCCCC5)nc4)cc3c21 + Cc1[nH]c2ccc(F)cc2c1-c1nc2c3cccnc3c3ncccc3c2[nH]1
47
O=C(NO)c1cnc(N2CCN(S(=O)(=O)c3ccc4ccccc4c3)CC2)nc1 + Cc1[nH]c2ccc(F)cc2c1-c1nc2c3cccnc3c3ncccc3c2[nH]1
26.6

[in] Observed viability, T/C on 276233-004-R-J1-PDC complex spheroid viability for COc1cc(C2c3cc4c(cc3C(OC3OC5COC(C)OC5C(O)C3O)C3COC(=O)C23)OCO4)cc(OC)c1O (stereo not given) + Cc1[nH]c2ccc(F)cc2c1-c1nc2c3cccnc3c3ncccc3c2[nH]1 , please.
[out] 49.6

[in] Observed viability, T/C on 276233-004-R-J1-PDC complex spheroid viability for CC1COCCN1c1cc(C2(O)CC3CCC(C2)O3)c2cnn(-c3ccn[nH]3)c2n1 (stereo not given) + CN(C)c1ccc(Nc2c3ccc(NC(=O)CCN4CCCC4)cc3nc3cc(NC(=O)CCN4CCCC4)ccc23)cc1 , please.
[out] 42.1

[in] Observed viability, T/C on 276233-004-R-J1-PDC complex spheroid viability for Cc1cccc(N(C)C(=O)C2C(O)CCN2c2nc(C)cc(C(F)(F)F)c2C#N)c1 (stereo not given) + Cc1cnc(CNC(=O)c2c(=O)c3ccc(N4CCCN(C)CC4)nc3n3c2sc2ccccc23)cn1 , please.
[out] 63.3

[in] Observed viability, T/C on 276233-004-R-J1-PDC complex spheroid viability for CC1COCCN1c1cc(C2(S(C)(=N)=O)CC2)nc(-c2ccnc3[nH]ccc23)n1 (stereo not given) + CN(C)c1ccc(Nc2c3ccc(NC(=O)CCN4CCCC4)cc3nc3cc(NC(=O)CCN4CCCC4)ccc23)cc1 , please.
[out] 45.5

[in] Observed viability, T/C on 276233-004-R-J1-PDC complex spheroid viability for CC(=O)O[C@H]1C(=O)[C@@]2(C)[C@H]([C@H](OC(=O)c3ccccc3)[C@]3(O)C[C@H](OC(=O)[C@H](O)[C@@H](NC(=O)c4ccccc4)c4ccccc4)C(C)=C1C3(C)C)[C@]1(OC(C)=O)CO[C@@H]1C[C@@H]2O + Cc1cnc(CNC(=O)c2c(=O)c3ccc(N4CCCN(C)CC4)nc3n3c2sc2ccccc23)cn1 , please.
[out] 62.5
